Measured values drawn from patent US10472341B2 for this set.

Tested on: aCD3/aCD28-stimulated human PBMCs
Assay: Cytokine production in aCD3/aCD28 stimulated human PBMCs
Format: cell-based
Settings: PBMC, enhancement of IL-2 production, 18 h, read-out: Activity Class IL-2
pEC50: −log10 of the molar value. Where a name gives a salt, the structure may show the parent alone.
# pEC50 annotations

Past entries and their recorded results:
Molecule	pEC50
CNC(=O)c1ccc2c(c1)N(Cc1ccc(OC(F)(F)F)cc1)C(=O)[C@@H](N)CS2.Cl [Example 17, hydrochloride]	< 5.30
Cl.N[C@H]1CSc2ccc(C(=O)NCCCC(F)(F)F)cc2N(Cc2ccc(Cl)cc2)C1=O [Example 22, hydrochloride]	5.30 to 5.80
Cl.N[C@H]1CSc2ccc(C(=O)NCC3CCCOC3)cc2N(Cc2ccc(Cl)cc2)C1=O (stereo partly shown) [Example 28, hydrochloride]	< 5.30
CC(C)NC(=O)c1ccc2c(c1)N(Cc1ccc(Cl)c(Cl)c1)C(=O)[C@@H](N)CS2(=O)=O.Cl [Example 88, hydrochloride]	< 5.30
CC(C)(O)CNC(=O)c1cc2c(cc1F)SC[C@H](N)C(=O)N2Cc1ccc(Cl)cc1 [Example 50]	< 5.30

Assign pEC50 to the following record: CC(=O)NCCCCCOc1ccc(CNC(=O)c2ccc3c(c2)N(Cc2ccc(Cl)cc2)C(=O)[C@@H](N)CS3(=O)=O)cc1.Cl [Example 78, hydrochloride]
> 5.80

Assign pEC50 to the following record: N[C@H]1C[S@@+]([O-])c2cc(F)c(C(=O)NCCCC(F)(F)F)cc2N(Cc2ccc(Cl)cc2)C1=O (single isomer, unassigned) [Example 123, hydrochloride]
5.30 to 5.80
